Measured CC50 at 3 days of individual entries
Test: Assay 2: cellular cytotoxic activity
Format: cell-based
Settings: human, mock-infected MT4-CMV-EGFP cells, EGFP fluorescence
Give the value in µM but do not write µM after it.

// recorded CC50 at 3 days for "CN1c2nc(c(O)c3ncccc23)C(=O)NCc2ccc(F)cc2C(=O)NCCCCCS1(=O)=O" : 27.7

# ---- query compound ----
// recorded CC50 at 3 days for "O=C1NCCCNc2nc(c(O)c3ncccc23)C(=O)NCc2ccc(F)cc21" : 61

###

Measured log10 of EC50 of individual entries
Test system: HIV-1 site-directed mutant strain Q148R
Experiment: Assay 1: inhibitory activity on HIV replication, Q148R mutant (MT4-LTR-EGFP cells)
Assay type: cell-based
Settings: Human immunodeficiency virus 1, 72 h, read-out: Q148R EC50
Experimental: Assay 1—Inhibitory Activity on HIV Replication Wild Type, N155H Mutant, and Q148R Mutant […] For generation of site directed mutant (SDM) virus stocks, MT4 cells were subcultured at a density of 250,000 cells/ml on the day before transfection. […] Cell cultures were monitored for the appearance of cytopathic effect (CPE). […] The antiviral activity of different inhibitors was determined in a cell-based HIV-1 replication assay. […]
Lab note - EC50 converted to log10 from values in nM.

Look over these answered cases.
// recorded log10 of EC50 for "O=C1NCCCCNc2nc(c(O)c3ncccc23)C(=O)NCc2ccc(F)cc21" : 4.45

// recorded log10 of EC50 for "CN1c2nc(c(O)c3ncccc23)C(=O)NCc2ccc(F)cc2C(=O)NCCCCCS1(=O)=O" : 0.90

// recorded log10 of EC50 for "CN1c2nc(c(O)c3ncccc23)C(=O)NCc2ccc(F)cc2OCCCCCS1(=O)=O" : 1.08

// recorded log10 of EC50 for "O=C1NCCCCN2CCN(CC2)c2nc(c(O)c3ncccc23)C(=O)NCc2ccc(F)cc21" : 2.93

// recorded log10 of EC50 for "O=C1NCCCCCCNc2nc(c(O)c3ncccc23)C(=O)NCc2ccc(F)cc21" : 2.54

Next:
// recorded log10 of EC50 for "O=C1NCCCN2CCN(CC2)c2nc(c(O)c3ncccc23)C(=O)NCc2ccc(F)cc21" : 2.66

// recorded log10 of EC50 for "O=C1NCCCNc2nc(c(O)c3ncccc23)C(=O)NCc2ccc(F)cc21" : 4.56

// recorded log10 of EC50 for "CN1c2nc(c(O)c3ncccc23)C(=O)NCc2ccc(F)cc2C(=O)NCCCCS1(=O)=O" : 1.30
